assay: endothelial E-selectin expression blockers – imaging, HUVEC, immunofluorescence, MLSMR starter and 10KST1 sets, primary screen (AID 487); conditions: HUVEC TNFalpha-induced E-selectin immunofluorescence imaging, at 2 µM; active compounds read high;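 also: signal is fraction of cell area covered by stained E-selectin grains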
The source made the active and inactive calls.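 The calls were made as follows: active = visually confirmed hit in the image check and inhibition above 20%; inconclusive = visually confirmed hit but inhibition not above 20%; inactive = no visual hit in the image check.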

molecule | inhibition
Cc1ccc(-c2nn(-c3ccccc3)cc2/C=C(\C#N)c2cccc(C#N)c2)o1 | 3.9% (inactive)
COc1cc(C(=O)Nc2cc(-c3ccccc3)[nH]n2)cc(OC)c1OC | -41% (inactive)
O=C(CCN1CCN(CCO)CC1)Nc1ccc(OCc2ccccc2)cc1 | -29.4% (inactive)
CCOCCCNC(=O)C(c1ccccc1)N(Cc1ccc2c(c1)OCO2)C(=O)CNC(C)=O (stereo not given) | -63.6% (inactive)
CC1CCN(c2oc(-c3cccc4ccccc34)nc2C#N)CC1 | -112% (inactive)
CCOC(=O)Cn1nnnc1CN(Cc1ccc(OC)cc1)Cc1cc2cc(C)ccc2[nH]c1=O | 62.8% (inactive)
CC(C)(CO)NC(=O)CCCOc1ccc(Cl)cc1Cl | 35.5% (inactive)
C/C(=C(\C#N)C(=O)NCCCN1CCOCC1)N(C)C | -96.7% (inactive)
CCOC(=O)C1CCN(C(=O)CN(Cc2ccccc2)S(C)(=O)=O)CC1 | -78.2% (inactive)
CCOc1ccc2[nH]c(O)c(NC(C)=O)c2c1 | 43.8% (inactive)
COc1ccc2cc(CN(CCO)C(=O)c3ccc(Br)cc3)c(=O)[nH]c2c1 | -33% (inactive)
Cn1c2c(c(=O)n(C)c1=O)CN(CCCN1CCOCC1)CN2 | 41.5% (inactive)
COc1ccc2cc(C#N)c(N3CCN(Cc4nnnn4CCC(C)C)CC3)nc2c1 | -5.8% (inactive)
CCOc1ccccc1N(C(=O)c1ccco1)C(C(=O)NC1CCCC1)c1cccnc1 (stereo not given) | 10% (inactive)
CC(=O)c1ccc(Oc2cc(C)nc(-n3nc(C)cc3C)n2)cc1 | -17.9% (inactive)
O=C(Nc1cccnc1)c1cc2c(ccc3ccccc32)o1 | -160% (inactive)
COc1ccc(CCN(Cc2cc3cccc(C)c3[nH]c2=O)C(=O)N2CCCC2)cc1OC | 11.6% (inactive)
COc1ccc(C(=O)NC(=O)CSc2nnc(-c3ccco3)n2-c2ccccc2)cc1 | -9.4% (inactive)
c1ccc(-c2nn3nnnc3c3ccccc23)cc1 | -2.7% (inactive)
N#CC1=C(N)N(c2ccccc2)C(c2ccco2)C1(C#N)C#N (stereo not given) | 3.9% (inactive)
CC12CCC(C(=O)O)(c3nc(C#N)c(C#N)nc31)C2(C)C (stereo not given) | -15.3% (inactive)
NC(=O)C1CCN(c2nc(-c3ccccc3)nc3ccccc23)CC1 | 49.5% (inactive)
CCC12CN3CC(CC)(CN(C1)C3c1ccc(OC(C)C)cc1)C2=O (stereo not given) | -15.2% (inactive)
C=Cn1c(C(=O)O)cc(CC)c1-c1ccccc1 | -51.5% (inactive)
c1cncc(C2Nc3ccccc3-c3nc4ccccc4n32)c1 (stereo not given) | -151% (inactive)
COc1cc(C2=NOC(C(=O)NCc3ccc(F)cc3)C2)cc(OC)c1OC (stereo not given) | -308% (inactive)
Cc1ccc(C)c(CSc2nnc(CCN)o2)c1 | -41.1% (inactive)
OCc1nc(CO)n(Cc2ccccc2)n1 | 42.4% (inactive)
Cc1cc(C(=O)COC(=O)c2n[nH]c3ccccc23)c(C)n1C | 12.4% (inactive)
O=C(CSc1nnnn1C1CCCC1)NCc1ccc2c(c1)OCO2 | -15.5% (inactive)
Cc1cc(C)c2c(n1)nn1c(N3CCN(c4ccccc4C)CC3)cc(C)nc21 | -52.8% (inactive)
CCOC(=O)Nc1ccc2c(c1)N(C(=O)CN(CC)CC)c1ccccc1C=C2 | -96.2% (inactive)
Cc1nc(C)c2c(c1C(F)(F)F)-c1ccccc1C2(F)F | -30.7% (inactive)
CCN1CCN(c2nc3c(c(=O)n(C)c(=O)n3C)n2CCSc2ncccn2)CC1 | -130% (inactive)
COc1ccccc1CC(=O)NCC1CCCO1 (stereo not given) | -2.8% (inactive)
CS(=O)(=O)c1ccc2nc(NC(=O)CCC(=O)c3cccs3)sc2c1 | -87.7% (inactive)
Cc1cc(C)n(C(=O)CCCCCC(=O)n2nc(C)cc2C)n1 | -195% (inactive)
Cc1cc(NC(=O)C(C)(C)C)no1 | -50.6% (inactive)
Cc1[nH]c(=O)[nH]c(=O)c1S(=O)(=O)N1CCCC(C(=O)NCc2ccco2)C1 (stereo not given) | -48.3% (inactive)
CCOc1ccccc1NC(=O)C1CCCN(S(=O)(=O)c2cccc3cccnc23)C1 (stereo not given) | -55.7% (inactive)
CC(=O)N1CCN(c2ccc(NC(=O)c3ccc(C(C)(C)C)cc3)cc2)CC1 | -186% (inactive)
COC(=O)C1=C(N)OC2=C(C(=O)CCC2)C1c1cccs1 (stereo not given) | 44.1% (inactive)
Cc1ccc(S(=O)(=O)N2CCN(C(=O)CSC3CCCC3)CC2)c(C)c1 | -425% (inactive)
CCc1c(C(=O)Nc2ncn(Cc3cccc(C)c3)n2)csc1C | -66.7% (inactive)
COc1ccc(CCN2C(=O)CCC2(C)C(=O)NCc2cccnc2)cc1OC (stereo not given) | -83.9% (inactive)

The origin of these recorded values is PubChem BioAssay.
